Origin of the recorded values: patent US20250230154A1

# tested.target: SHP2 protein (Homo sapiens, UniProt Q06124)
# Sequence (Q06124 1-593): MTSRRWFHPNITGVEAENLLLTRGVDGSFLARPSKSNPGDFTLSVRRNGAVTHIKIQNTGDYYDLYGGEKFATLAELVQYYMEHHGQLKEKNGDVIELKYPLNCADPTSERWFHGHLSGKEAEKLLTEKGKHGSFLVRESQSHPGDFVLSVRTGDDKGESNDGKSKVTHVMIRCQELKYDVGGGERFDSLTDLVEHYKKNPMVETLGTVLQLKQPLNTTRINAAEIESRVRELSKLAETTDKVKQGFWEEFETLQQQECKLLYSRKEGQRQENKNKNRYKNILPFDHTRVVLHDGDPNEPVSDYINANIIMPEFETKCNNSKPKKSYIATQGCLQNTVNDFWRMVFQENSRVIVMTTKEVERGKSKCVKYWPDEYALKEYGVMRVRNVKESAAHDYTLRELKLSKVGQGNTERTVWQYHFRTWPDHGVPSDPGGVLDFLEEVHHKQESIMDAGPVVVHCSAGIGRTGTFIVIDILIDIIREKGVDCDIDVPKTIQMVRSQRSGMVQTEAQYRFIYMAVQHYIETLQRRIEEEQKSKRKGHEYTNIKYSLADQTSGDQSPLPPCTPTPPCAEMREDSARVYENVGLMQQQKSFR
# assay.method.text: Measurement of SHP2 protein degradation in KYSE-520 cells (western blotting)
# Assay type: cell-based
# Design: endogenous in cells
# cond: 1000 nM, 24 hours
# reported SHP2 degradation (%) 1000 nM; entries follow
Hi, when you answer, please include the unit after the number. Thanks!

Consider the worked cases shown below.
{"smiles.input": "Cc1ncsc1-c1ccc(CNC(=O)[C@@H]2C[C@@H](O)CN2C(=O)[C@@H](NC(=O)C2(F)CC2)C(C)(C)C)c(OCCCCCCCCN2CCC(C(=O)Nc3cccc(Sc4cnc(N5CCC(C)(CN)CC5)cn4)c3Cl)CC2)c1", "tested.target": "SHP2 protein (Homo sapiens, UniProt Q06124)", "property.name": "SHP2 degradation (%) 1000 nM", "value": "90.7%"}
{"smiles.input": "Cc1ncsc1-c1ccc(CNC(=O)[C@@H]2C[C@@H](O)CN2C(=O)[C@@H](NC(=O)C2(F)CC2)C(C)(C)C)c(OCCCCCCN2CC(C(=O)Nc3cccc(Sc4cnc(N5CCC(C)(CN)CC5)cn4)c3Cl)C2)c1", "tested.target": "SHP2 protein (Homo sapiens, UniProt Q06124)", "property.name": "SHP2 degradation (%) 1000 nM", "value": "78.0%"}
{"smiles.input": "Cc1ncsc1-c1ccc(CNC(=O)[C@@H]2C[C@@H](O)CN2C(=O)[C@@H](NC(=O)C2(F)CC2)C(C)(C)C)c(OCCN2CCC(CCC(=O)Nc3cccc(Sc4cnc(N5CCC(C)(CN)CC5)cn4)c3Cl)CC2)c1", "tested.target": "SHP2 protein (Homo sapiens, UniProt Q06124)", "property.name": "SHP2 degradation (%) 1000 nM", "value": "69.2%"}

## Task Name the recorded SHP2 degradation (%) 1000 nM for Cc1ncsc1-c1ccc(CNC(=O)[C@@H]2C[C@@H](O)CN2C(=O)[C@@H](NC(=O)C2(F)CC2)C(C)(C)C)c(OCCCCN2CCC(CCC(=O)Nc3cccc(Sc4cnc(N5CCC(C)(CN)CC5)cn4)c3Cl)CC2)c1 .
## Result 74.6%

---

# tested.target: SHP2 protein (Homo sapiens, UniProt Q06124)
# assay.method.text: Measurement of SHP2 protein degradation in KYSE-520 cells (western blotting)
# Format: cell-based
# Set-up: endogenous in cells
# cond: 1000 nM, 24 hours
Label Fulfilled when SHP2 degradation (%) 1000 nM is at or above 80%; anything below gets Not fulfilled.

{"smiles.input": "Cc1ncsc1-c1ccc(CNC(=O)[C@@H]2C[C@@H](O)CN2C(=O)[C@@H](NC(=O)C2(F)CC2)C(C)(C)C)c(OCCCCCCN2CCC(C(=O)Nc3cccc(Sc4cnc(N5CCC(C)(CN)CC5)cn4)c3Cl)CC2)c1", "assigned.category": "Fulfilled"}
{"smiles.input": "Cc1ncsc1-c1ccc(CNC(=O)[C@@H]2C[C@@H](O)CN2C(=O)[C@@H](NC(=O)C2(F)CC2)C(C)(C)C)c(OCCCCN2CCC(C(=O)Nc3cccc(Sc4cnc(N5CCC(C)(CN)CC5)cn4)c3Cl)CC2)c1", "assigned.category": "Fulfilled"}
{"smiles.input": "Cc1ncsc1-c1ccc(CNC(=O)[C@@H]2C[C@@H](O)CN2C(=O)[C@@H](NC(=O)C2(F)CC2)C(C)(C)C)c(OCCCC(=O)N2CCC(CCC(=O)Nc3cccc(Sc4cnc(N5CCC(C)(CN)CC5)cn4)c3Cl)CC2)c1", "assigned.category": "Not fulfilled"}
{"smiles.input": "Cc1ncsc1-c1ccc(CNC(=O)[C@@H]2C[C@@H](O)CN2C(=O)[C@@H](NC(=O)C2(F)CC2)C(C)(C)C)c(OCCCCCCN2CCC(CCCC(=O)Nc3cccc(Sc4cnc(N5CCC(C)(CN)CC5)cn4)c3Cl)CC2)c1", "assigned.category": "Fulfilled"}
{"smiles.input": "Cc1ncsc1-c1ccc(CNC(=O)[C@@H]2C[C@@H](O)CN2C(=O)[C@@H](NC(=O)C2(F)CC2)C(C)(C)C)c(OCCN2CCC(CC(=O)Nc3cccc(Sc4cnc(N5CCC(C)(CN)CC5)cn4)c3Cl)CC2)c1", "assigned.category": "Fulfilled"}
{"smiles.input": "Cc1ncsc1-c1ccc(CNC(=O)[C@@H]2C[C@@H](O)CN2C(=O)[C@@H](NC(=O)C2(F)CC2)C(C)(C)C)c(OCCCCN2CCC(CCCC(=O)Nc3cccc(Sc4cnc(N5CCC(C)(CN)CC5)cn4)c3Cl)CC2)c1", "assigned.category": "Fulfilled"}

## Task Kindly determine if SHP2 degradation (%) 1000 nM recorded for Cc1ncsc1-c1ccc(CNC(=O)[C@@H]2C[C@@H](O)CN2C(=O)[C@@H](NC(=O)C2(F)CC2)C(C)(C)C)c(OCCN2CCC(CCCC(=O)Nc3cccc(Sc4cnc(N5CCC(C)(CN)CC5)cn4)c3Cl)CC2)c1 is above or exactly 80%.
## Result Fulfilled

## Task For this compound, is measured SHP2 degradation (%) 1000 nM 80% or higher? Cc1ncsc1-c1ccc(CNC(=O)[C@@H]2C[C@@H](O)CN2C(=O)[C@@H](NC(=O)C2(F)CC2)C(C)(C)C)c(OCCCCN2CCC(CC(=O)Nc3cccc(Sc4cnc(N5CCC(C)(CN)CC5)cn4)c3Cl)CC2)c1
## Result Fulfilled

## Task Does SHP2 degradation (%) 1000 nM meet or surpass 80% for Cc1ncsc1-c1ccc(CNC(=O)[C@@H]2C[C@@H](O)CN2C(=O)[C@@H](NC(=O)C2(F)CC2)C(C)(C)C)c(OCCCC(=O)N2CCC(C(=O)Nc3cccc(Sc4cnc(N5CCC(C)(CN)CC5)cn4)c3Cl)CC2)c1 ?
## Result Not fulfilled

## Task Hi team, for Cc1ncsc1-c1ccc(CNC(=O)[C@@H]2C[C@@H](O)CN2C(=O)[C@@H](NC(=O)C2(F)CC2)C(C)(C)C)c(OCCCN2CCC(CCC(=O)Nc3cccc(Sc4cnc(N5CCC(C)(CN)CC5)cn4)c3Cl)CC2)c1 , is the recorded SHP2 degradation (%) 1000 nM at or above 80%?
## Result Not fulfilled

## Task Please indicate if the recorded SHP2 degradation (%) 1000 nM for Cc1ncsc1-c1ccc(CNC(=O)[C@@H]2C[C@@H](O)CN2C(=O)[C@@H](NC(=O)C2(F)CC2)C(C)(C)C)c(OCCCC(=O)N2CCC(CC(=O)Nc3cccc(Sc4cnc(N5CCC(C)(CN)CC5)cn4)c3Cl)CC2)c1 meets or exceeds 80%.
## Result Not fulfilled

## Task Please check the record Cc1ncsc1-c1ccc(CNC(=O)[C@@H]2C[C@@H](O)CN2C(=O)[C@@H](NC(=O)C2(F)CC2)C(C)(C)C)c(OCCCN2CCC(C(=O)Nc3cccc(Sc4cnc(N5CCC(C)(CN)CC5)cn4)c3Cl)CC2)c1 and state if its SHP2 degradation (%) 1000 nM is at or above 80%.
## Result Not fulfilled
